Origin of values: ChEMBL document CHEMBL1135099

Test system: Mus musculus
Experiment: Percent inhibition of proteinuria in mice, perorally dose of 32 mg/kg
Format: functional
Conditions: route oral
measured_parameter: inhibition in vivo at 32 mg/kg (%)
State just the number; it will be interpreted in %.

INSERT INTO results (molecular_string, measured_parameter, observed) VALUES
  ('CSc1ccc2c(c1)c(O)c(C(=O)N(C)c1cccc(C(F)(F)F)c1)c(=O)n2C', 'inhibition in vivo at 32 mg/kg', 99),
  ('CCSc1ccc2c(c1)c(O)c(C(=O)N(C)c1ccccc1)c(=O)n2C', 'inhibition in vivo at 32 mg/kg', 100),
  ('COc1c(C(=O)N(C)c2ccccc2)c(=O)n(C)c2ccc(SC)cc12', 'inhibition in vivo at 32 mg/kg', 94),
  ('CSc1ccc2c(c1)c(O)c(C(=O)Nc1ccccc1)c(=O)n2C', 'inhibition in vivo at 32 mg/kg', 24);

Consider the record given below.
Input: Checklist item: inhibition in vivo at 32 mg/kg tested on Mus musculus, entry CSc1ccc2c(c1)c(O)c(C(=O)N(C)c1ccc(C)cc1)c(=O)n2C , value?
Output: 100
